system: KM12; experiment: Anticancer activity against human KM12 cells after 48 hrs by SRB assay; type: functional; conditions: KM12, 48 h
MEASURED_QUANTITY: GI50 (µM)
Give the value, in units of µM, as a plain number.

Some solved entries appear below for comparison.
1. O=C(NCCNc1nccc(-c2c(-c3cccc(O)c3)nc3sccn23)n1)c1ccccc1 ... 12.1
2. COc1cccc(-c2nc3sccn3c2-c2ccnc(NCCNC(=O)Nc3cccc(C(F)(F)F)c3)n2)c1 ... 3.36

// GI50 lookup, key: O=C(NCCNc1nccc(-c2c(-c3cccc(O)c3)nc3sccn23)n1)c1ccccc1O
6.38

What value of GI50 has been reported for the following compound? O=C(NCCNc1nccc(-c2c(-c3cccc(O)c3)nc3sccn23)n1)Nc1cccc(C(F)(F)F)c1
2.78
